Assay: Drug level in Dutch-Belted rabbit aqueous humor at 100 ug administered as topical ocular instillation after 30 mins by RP-HPLC analysis
Type: ADME, Oryctolagus cuniculus, Aqueous humor of eyeball
Assay Setup: topical or ocular, read-out: Drug uptake
Would you mind telling me the reported concentration at 0.5 h of each entry?

Entry CC(=O)NCC(O)CN1CCN(c2nc(-c3ccncc3)cnc2N2CCCC2)CC1 (stereo not drawn) — recorded concentration at 0.5 h = 4800 nM

The measured concentration at 0.5 h associated with `Cc1n[nH]c2ccc(-c3cncc(N4CCCNCC4)n3)cc12` reads 200 nM

Per the record, `c1cc2[nH]ncc2cc1-c1cncc(N2CCCNCC2)n1` has concentration at 0.5 h of 1000 nM

These data points were gathered from ChEMBL document CHEMBL3232974.
